Target: ferroportin (Homo sapiens, UniProt Q9NP59)
Sequence (Q9NP59 whole entry): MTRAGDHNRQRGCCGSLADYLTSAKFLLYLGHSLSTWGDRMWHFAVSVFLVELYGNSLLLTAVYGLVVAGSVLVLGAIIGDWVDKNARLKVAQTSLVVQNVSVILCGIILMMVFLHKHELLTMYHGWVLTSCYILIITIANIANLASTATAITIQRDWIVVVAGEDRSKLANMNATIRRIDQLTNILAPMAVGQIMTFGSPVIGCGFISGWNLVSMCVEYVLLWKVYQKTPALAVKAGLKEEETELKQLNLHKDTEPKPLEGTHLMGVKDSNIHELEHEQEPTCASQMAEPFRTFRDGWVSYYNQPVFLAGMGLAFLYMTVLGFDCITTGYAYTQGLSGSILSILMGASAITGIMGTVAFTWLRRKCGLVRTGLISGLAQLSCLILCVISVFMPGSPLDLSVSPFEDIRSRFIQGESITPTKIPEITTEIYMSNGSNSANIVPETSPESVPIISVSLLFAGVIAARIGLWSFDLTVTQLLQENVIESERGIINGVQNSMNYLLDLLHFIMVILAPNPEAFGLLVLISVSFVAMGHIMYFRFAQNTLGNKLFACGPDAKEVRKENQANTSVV
Assay: FPN activity assay: ferroportin-GFP internalization/degradation in HEK293 cells
Format: cell-based
Parameters: expressed in transfected cells
Conditions: ferroportin-GFP internalization/degradation, HEK293 cells; Table 6E; read-out: FPN IC50
Procedure: Following internalization, the ferroporin protein is degraded. A retro inverse peptide is a peptide with a reversed sequence in all D amino acids. An example is that Hy-Glu-Thr-His-NH2 becomes Hy-DHis-DThr-DGlu-NH2. The EC50 of these reference compounds for ferroportin internalization/degradation was determined according to the FPN activity assay described above. These peptides served as control standards.
Positions of bridges follow the written chain, without caps; N, C: chain ends. Non-standard residues stand in square brackets, D forms with d. Residues, ends and D or L forms follow the SMILES beside them. Groups on a side chain read outwards from the residue. *: point of attachment. X1 = C[N+](C)(CCNC(=O)CCCCCCCCCCCCCCCCC(=O)O)CC(=O)*; Dip = N[C@H](C(=O)O)C(c1ccccc1)c1ccccc1; β3hF = N[C@H](CC(=O)O)Cc1ccccc1; Isovaleryl = CC(C)CC(=O)*; Ahx = NCCCCCC(=O)O

# MOLECULE, DC50
rows = [
    ("COC(=O)CC[C@H](NC(=O)CC(C)C)C(=O)N[C@H](C(=O)N[C@@H](Cc1c[nH]cn1)C(=O)N[C@H](C(=O)N1CCC[C@H]1C(=O)N[C@H]1CSSC[C@@H](C(=O)N[C@@H](CCCCNC(=O)CCCCCNC(=O)C[N+](C)(C)CCNC(=O)CCCCCCCCCCCCCCCCC(=O)O)C(=O)N[C@H](CC(=O)N[C@H](CCCCN)C(N)=O)Cc2ccccc2)NC1=O)C(c1ccccc1)c1ccccc1)[C@@H](C)O [compound 311] (Isovaleryl-E(OMe)TH[Dip]PCCK([Ahx-X1])[β3hF][dK]-NH2; disulfide 6-7)", "10 to 100 nM"),
]
